experiment: binders of probe aFST on microarray, primary screen, stem cell growth factor project, biochemical, small-molecule microarray, fluorescence 635/667 (AID 1086); conditions: higher = more signal;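 also: score merges 667 nm fluorescence with signal-to-noise of each printed compound spot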
Below, each entry is listed alongside its reported composite z-score.
OBSERVED PROPERTY: composite z-score

1) C=CC[C@@H]1C=C[C@H](ON=C2C[C@@H](O)[C@@H](O)[C@@H]3[C@@H]4C(=O)N(CC)C(=O)[C@@H]4CC[C@@H]23)[C@@H](CO)O1    0.245
2) CC(C)[C@@H](OCc1ccccc1)[C@H](C)CON=C1[C@H]2CCn3c(=O)n(-c4ccccc4)c(=O)n3[C@H]2[C@H](O)[C@@H]2O[C@H]12    0.369
3) O=C1[C@H]2[C@H]3[C@H](O)[C@H](O)CC(=NO[C@@H]4O[C@H](CO)[C@@H](O)[C@H](O)[C@H]4O)[C@@H]3CC[C@H]2C(=O)N1C[C@@H]1CCCO1    0.254
4) COC(=O)[C@@H]1CC[C@H](C)[C@@H](c2ccc(C)cc2)N1C(=O)c1ccc(C=NOC[C@@H](O)[C@H]2O[C@@H]3OC(C)(C)O[C@@H]3[C@H]2O)cc1    0.794
5) O=C1[C@H]2[C@H]3[C@H](O)[C@H](O)CC(=NOC[C@@H](O)COCc4ccco4)[C@@H]3CC[C@H]2C(=O)N1c1cccc(Oc2ccccc2)c1    -0.465
6) COc1ccc(OC[C@H]2CN3[C@@H](CC[C@@H](C)[C@@H]3c3ccc(Br)cc3)C(=O)O2)cc1    -0.115
7) COC(=O)CC=C[C@@H](C)[C@@H](C=NOC[C@@H](O)COCc1ccco1)NS(=O)(=O)c1ccc(C)cc1    -0.0225
8) CCN1C(=O)[C@H]2[C@H]3[C@H](O)[C@H](O)CC(=NOCC(C)C)[C@H]3CC[C@H]2C1=O    0.101
9) CCOC(=O)CCN1C(=O)[C@H]2[C@@H]3C(=CC[C@H]2C1=O)C(=O)[C@H]1O[C@H]1[C@H]3O    -0.481
10) COC(=O)CC=C[C@@H](C)[C@@H](C=NOC(C)CN1CCCCc2nc(C)c(C)cc21)OC (stereo not given in full)    0.286
11) O=C1[C@H]2[C@H]3[C@H](O)[C@H](O)CC(=NOCc4ccccc4)[C@@H]3CC[C@H]2C(=O)N1c1cccc(Oc2ccccc2)c1    0.529
12) CO[C@H]1COC(=O)CCC[C@H](C)[C@@H](OC)COC(=O)CC=C[C@@H]1C    -0.106
13) OC[C@H]1O[C@H](C#Cc2ccccc2)C=C[C@@H]1O    0.101
14) O=C1C=C[C@@H](O)[C@@H]2[C@@H]3C(=O)N(C4CCCCC4)C(=O)[C@@H]3CC[C@@H]12    0.265
15) C[C@H]1CC[C@@H](C(=O)O)N[C@@H]1c1ccc(C#Cc2ccccc2)cc1    0.316

###

assay: S. cerevisiae growth modulation with rapamycin, primary screen, strain BY4716, OD600, 96 h (AID 1091); conditions: called active from +8 up or from −8 down; also: test concentration not given here
Activity calls are given as the source filed them.
Labels: active, inactive

1) CCOC(=O)[C@H](Cc1ccccc1)NC(=O)CCC1CC(OC(=O)NCCc2ccc(F)cc2)CC2(CCCC(COC(=O)NCCC(C)C)O2)O1 (some centres not stated)    inactive
2) CCOC(=O)[C@H](Cc1ccccc1)NC(=O)CCC1CC(OC(=O)NCc2ccc3c(c2)OCO3)CC2(CCCC(COC(=O)NCCOC)O2)O1 (some centres not stated)    inactive
3) CCN(CC)CC(O)CN1CCCCc2nc(C)c(C)cc21 (configuration not stated)    inactive
4) CC(C)CON=C1C[C@@H](O)[C@@H](O)[C@@H]2[C@@H]3C(=O)N(Cc4ccccc4)C(=O)[C@@H]3CC[C@H]12    inactive
5) COc1ccc(OC[C@@H](CO)OC)cc1    inactive
6) C[C@@H]1CC[C@H]2C(=O)OC(Cc3ccccc3)CN2[C@H]1c1ccc(Br)cc1 (some centres not stated)    inactive
7) CCOC(=O)CCN1C(=O)[C@H]2[C@@H]3C(=CC[C@H]2C1=O)C(=O)[C@H]1O[C@H]1[C@H]3O    inactive
8) CC(CCN1CCCCc2nc(C)c(C)cc21)=NOC[C@@H](O)[C@H]1O[C@@H]2OC(C)(C)O[C@@H]2[C@H]1O    inactive
9) CCO[C@H](c1cc(OC)cc([N+](=O)[O-])c1OC)[C@H](C)[C@@H](OC)[C@H](C)C=CCC(=O)OC    inactive
10) CC(C)[C@@H](OCc1ccccc1)[C@H](C)C=NO[C@H](C)c1cn([C@@H]2COC[C@H]2O)nn1    inactive
11) CCOC(=O)CCN1C(=O)[C@H]2[C@H]3[C@H](O)[C@H](O)CC(=NO[C@@H]4O[C@H](CO)[C@@H](O)[C@H](O)[C@H]4O)[C@H]3CC[C@H]2C1=O    inactive
12) CC(CCC(=O)OC[C@H]1O[C@H](C#Cc2ccccc2)C=C[C@@H]1Oc1ccc(C)cc1)=NO[C@H](C)c1cn([C@@H]2COC[C@H]2O)nn1    inactive
13) CCN1C(=O)[C@H]2[C@H]3[C@H](O)[C@H](O)CC(=NOC(C)CN4CCCc5nc(C)c(C)cc54)[C@@H]3CC[C@H]2C1=O (some centres not stated)    inactive
14) CO[C@@H]1COC(=O)[C@@H]2CCCN2C(=O)[C@@H](C)COC(=O)CCC[C@H]1C    inactive
15) COC(=O)[C@H](C)NC(=O)CCC1CC(OC(=O)NCCc2ccc(F)cc2)CC2(CCCC(COC(=O)NCc3ccccc3)O2)O1 (some centres not stated)    inactive
16) CC(C)CON=C1C[C@@H](O)[C@@H](O)[C@@H]2[C@@H]3C(=O)N(C(C)(C)C)C(=O)[C@@H]3CC[C@@H]12    inactive
17) O=C1C2=CC[C@H]3C(=O)N(c4ccc(F)cc4F)C(=O)[C@H]3[C@H]2[C@H](O)[C@@H]2O[C@H]12    inactive
18) C#CCCCON=C1[C@H]2CCn3c(=O)n(Cc4cc5c(cc4Cl)OCO5)c(=O)n3[C@H]2[C@H](O)[C@@H]2O[C@H]12    inactive
19) CC(C)CON=C1C[C@@H](O)[C@@H](O)[C@@H]2[C@@H]3C(=O)N(c4ccc(F)cc4F)C(=O)[C@@H]3CC[C@@H]12    inactive
20) CC(CCN1CCc2nc(-c3ccccc3)c(-c3ccccc3)cc2C1)=NO[C@H](C)c1cn([C@H](CO)Cc2ccccc2)nn1    inactive
21) CN1CCc2nc(-c3ccccc3)c(-c3ccccc3)cc2C1    inactive
22) O=C1CCCC=C1C(O)COCc1ccccc1 (configuration not stated)    inactive
23) COC(=O)[C@H](C)NC(=O)CCC1CC(OC(=O)NCc2ccc3c(c2)OCO3)CC2(CCCC(COC(=O)NCCc3ccc(Cl)cc3)O2)O1 (some centres not stated)    inactive
24) C[C@H]1CC[C@@H](C(=O)O)N[C@@H]1c1ccc(C#Cc2ccccc2)cc1    inactive
25) CO[C@H]1C[C@@H]2C[C@H](O)CC(CC(=O)O[C@@H](C=CCC(C)C)C[C@@H]3CC[C@H](C)[C@@H](C1)O3)O2    inactive
26) CC(C)(C)N1C(=O)[C@H]2[C@H]3[C@H](O)[C@H](O)CC(=NNC(=O)OCc4ccccc4)[C@@H]3CC[C@H]2C1=O    active
27) CCOC(=O)CCN1C(=O)[C@H]2[C@H]3[C@H](O)[C@H](O)CC(=NNC(=O)OCc4ccccc4)[C@H]3CC[C@H]2C1=O    inactive
28) CCC1=NOC(CCC2CC(OC(=O)NCc3cccc4c3OCO4)CC3(CCCC(COC(=O)NCCc4ccc(Cl)cc4)O3)O2)C1 (configuration not stated)    inactive
29) CON=C[C@@H](OC)[C@H](C)C=CCC(=O)OC    inactive
30) CON=C(C)CCN1CCCCc2nc(C)c(C)cc21    inactive
31) CC(CCN1CCCCc2nc(C)c(C)cc21)=NO[C@@H](C)c1cc(-c2c(C)cc(C)cc2C)no1    inactive
32) O=C1C[C@@H](O)[C@@H](O)[C@@H]2[C@@H]3C(=O)N(C4CCCCC4)C(=O)[C@@H]3CC[C@@H]12    inactive

###

assay: small-molecule microarray binders of probe aEGFR, primary screen, biochemical, biotinylated probe, 635/667 nm fluorescence (AID 1097); details: higher = more signal;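 also: probe is a biotinylated anti-EGFR antibody binding compounds printed on slides; score combines fluorescence near 667 nm and signal to noise of each spot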
Below, each entry is listed alongside its reported composite z-score.
OBSERVED PROPERTY: composite z-score

1. COC(=O)[C@@H]1CC[C@H](C)[C@@H](c2ccc(Br)cc2)N1    -0.044
2. COC(=O)CC=C[C@@H](C)[C@@H](C=NOC[C@@H](O)COCc1ccco1)NS(=O)(=O)c1ccc(C)cc1    -0.195
3. CCOC(=O)CCN1C(=O)[C@H]2[C@H]3[C@H](O)[C@H](O)CC(=NNC(=O)OCc4ccc(OC)cc4)[C@H]3CC[C@H]2C1=O    0.0289
4. CC(C)CN1CCc2nc(-c3ccccc3)c3c(c2C1)CO[C@@H](C)C3    0.0914
